Where these numbers come from: ChEMBL document CHEMBL1799933

- Assay notes: Half life in rhesus monkey
- Format: ADME, organism-based, Macaca mulatta
- Study conditions: in vivo
Value kind: half-life (min)

> print(dat)
                                   compound  value.kind  result.units  number
1  N#CC1(c2ccccn2)CCN(Cc2cc(C(=O)O)c(=O)n3ccccc23)CC1 [MSD-M1PAM]   half-life           min     216

* * *

Measured IP by item
- Tgt: UniProt:P11229
- Sequence (P11229 whole entry): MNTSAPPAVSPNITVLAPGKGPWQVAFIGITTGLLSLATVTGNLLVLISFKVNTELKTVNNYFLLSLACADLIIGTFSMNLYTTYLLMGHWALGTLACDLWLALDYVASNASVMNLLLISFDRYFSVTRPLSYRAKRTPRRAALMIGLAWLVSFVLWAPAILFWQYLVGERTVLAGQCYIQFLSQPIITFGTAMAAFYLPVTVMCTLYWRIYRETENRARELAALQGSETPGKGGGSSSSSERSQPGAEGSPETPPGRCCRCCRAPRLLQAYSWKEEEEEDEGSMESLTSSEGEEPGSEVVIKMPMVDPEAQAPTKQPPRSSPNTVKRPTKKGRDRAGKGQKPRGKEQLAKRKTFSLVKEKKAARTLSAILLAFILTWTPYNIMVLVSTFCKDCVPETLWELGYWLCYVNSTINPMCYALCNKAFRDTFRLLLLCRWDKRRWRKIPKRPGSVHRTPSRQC
- Assay notes: Agonist activity at human muscarinic M1 receptor expressed in CHONFAT cells assessed as enhancement of acetylcholine-induced calcium mobilization preincubated for 4 mins measured after 1 hr by FLIPR assay
- Assay type: functional, cell-based
Value kind: IP

> print(dat)
                   compound.structure.string             tgt  value.kind   result
 1  N#CC1(c2ccncc2)CCN(Cc2cc(C(=O)O)c(=O)n3ccccc23)CC1  UniProt:P11229          IP   938 nM
 2  Cc1ccnc(C2(C#N)CCN(Cc3cc(C(=O)O)c(=O)n4ccccc34)CC2)c1  UniProt:P11229          IP    44 nM
 3  N#CC1(c2cccc(Cl)n2)CCN(Cc2cc(C(=O)O)c(=O)n3ccccc23)CC1  UniProt:P11229          IP   133 nM
 4  Cc1cccc(C2(C#N)CCN(Cc3cc(C(=O)O)c(=O)n4ccccc34)CC2)n1  UniProt:P11229          IP   148 nM
 5  N#CC1(c2ccc(F)cc2)CCN(Cc2cc(C(=O)O)c(=O)n3ccccc23)CC1  UniProt:P11229          IP   194 nM
 6  COc1ccccc1C1(C#N)CCN(Cc2cc(C(=O)O)c(=O)n3ccccc23)CC1  UniProt:P11229          IP   164 nM
 7  N#CC1(c2cc(F)ccn2)CCN(Cc2cc(C(=O)O)c(=O)n3ccccc23)CC1  UniProt:P11229          IP   244 nM
 8  N#CC1(c2ccccc2F)CCN(Cc2cc(C(=O)O)c(=O)n3ccccc23)CC1  UniProt:P11229          IP    81 nM
 9  CCc1ccnc(C2(C#N)CCN(Cc3cc(C(=O)O)c(=O)n4ccccc34)CC2)c1  UniProt:P11229          IP    84 nM
10  O=C(O)c1cc(CN2CCC(c3ccccc3)CC2)c2ccccn2c1=O  UniProt:P11229          IP  1340 nM
